parameter: melting point

Sample Cc1ccc(S(=O)(=O)N2CC2)cc1 — what was its melting point? 51 to 52 °C

Try the compound Cc1nc(-n2ccnc(C)c2=O)sc1C(=O)NCc1ccccc1 186 to 187 °C

Try the compound O=C(Nc1cccnc1)c1ccc(OC(F)F)c2oc3ccccc3c12 209 to 211 °C

Try the compound COc1ccc(Cc2cc(Oc3c(C)cc(C=C4N=C(C)OC4=O)cc3C)ccc2OC)cn1 164 to 165 °C

Try the compound CC1CN(Cc2ccc(Cl)nc2)C(=C[N+](=O)[O-])N1 (stereo not given) 170 to 174 °C

Try the compound COC(=O)C1C=C2c3cccc4[nH]c(Br)c(c34)CC2N(C)C1 (stereo not given) 124 to 125 °C

Try the compound COC(=O)c1c(Br)c(Cl)cc2nn(C)cc12 141 to 142 °C

Try the compound Nc1c2c(nc3ccccc13)CCc1cn(N)nc1-2 > 250 °C

Try the compound COC(=O)Cc1cn(Cc2ccc(OCc3ccccc3)cc2)nc1-c1ccc(F)cc1 58 to 59 °C

Try the compound COc1ccc2c(c1)C(=O)N(c1ccc3ccoc3c1)C2 141 to 143 °C

Try the compound O=Cc1ccc(-c2ccc(-c3ccco3)o2)o1 75 to 77 °C

Try the compound CCOc1nn(-c2ccc(C(F)(F)F)cn2)cc1CCCOc1ccc(Cl)cc1CC(=O)O 130 to 131 °C

Try the compound CC(C)c1cccc(C(C)C)c1N1C(=O)c2cccc3c(C(N)=O)ccc(c23)C1=O 233 °C

Try the compound O=C1CCn2ncnc2N1 276 to 280 °C

Try the compound O=C(Nc1ccc(Br)c2ccccc12)c1cc(F)cc(N2CCOCC2)c1 187 to 189 °C

Try the compound O=C(O)COc1ccc(-c2c(Br)ccc3sc4ccccc4c23)cc1 210 °C

Try the compound CCn1ncc2nc(C(=O)O)c(C)nc21 148 to 149 °C

Try the compound COc1ccc(C(=O)c2ccc(OCc3ccccc3)cc2)c(O)c1 124 to 125 °C

Try the compound c1ccc(CN2CCC(NCc3ccc(OCc4ccnc5ccccc45)cc3)CC2)cc1 72 to 75 °C

Try the compound Nn1c(=O)c(=O)[nH]c2c(Br)cc(Br)cc21 273 to 275 °C

Try the compound CC(=O)N(C)Cc1ccc(CCn2cnc3cc(-c4ccc(Cl)cc4)sc3c2=O)cc1 176 to 178 °C

Try the compound NC(=O)NCCNc1n[nH]c2ncnc(Nc3cccc(Cl)c3)c12 212 to 214 °C

Try the compound CC(C)c1nc(-c2ccc(/C=C/C3(O)CN4CCC3CC4)cc2)no1 (stereo not given) 142 to 144 °C

Try the compound COc1ccc(C(=O)C2CCCCC2C(=O)O)cc1OC (stereo not given) 171 to 175 °C

Try the compound Cn1cnnc1Sc1nc(-c2ccc(Cl)cc2)c(CCC(=O)O)o1 186 to 188 °C

Try the compound CCOC(=O)n1ccc(=O)c2cnc(N3CCN(CC)CC3)nc21 161 °C

Try the compound Cc1cc(-n2cc(C#N)nc2C)cc2ccc(=O)[nH]c12 > 350 °C

Try the compound CC(C)c1cccc(C(C)C)c1NC(=O)CNC(c1ccccc1)c1ccccc1Cl (stereo not given) 119 to 121 °C

Try the compound CC1=C(c2ccc(OCC(=O)O)c(Cl)c2Cl)CCCC1=O 143 to 145 °C

Try the compound CCC(C(C)=CC(CNC(=O)c1nc[nH]n1)=NO)[N+](=O)[O-] (stereo not given) 131 to 136 °C

Try the compound N#Cc1ccc(OCCCCN2C(=O)c3ccccc3C2=O)cc1 129 to 130 °C

Try the compound O=C(O)Cc1c(C(=O)c2ccc3c(c2)CCO3)[nH]c2cc(Cl)ccc12 217 °C

Try the compound CCOC(=O)c1cn(C)c2nc3cc(N4CCNC(Cc5ccccc5)C4)c(F)cc3cc2c1=O (racemic) 190 °C

Try the compound CCOC(=O)c1nn(-c2c(Cl)cc(C(F)(F)F)cc2Cl)cc1O 140 to 143 °C

Try the compound CCCCCCCCC1C=CC(/C(C)=C/c2ccc(C(=O)O)o2)=C2N=C3CCCCC3=C21 (stereo not given) 152 to 154 °C

Values from a melting point compilation (Tetko et al.; mined from patent text by program, amines drawn as free bases though some values may be those of a salt)
